# credit: patent US20250092065A1

- Test system: K562 cells
- experimental_details: Cell Titer Glo 2.0 cell viability (toxicity) assay, K562
- recorded_conditions: 500 cells/well, 72 hours
observation_type: Effect of Exemplary Compounds on Cell Viability, K562

1) CNC(=O)c1nc(-c2cc3cn(C)nc3cc2O)nc2ccc(N3C[C@@H](C)N[C@@H](C)C3)cc12 | A (A represents <100 nM)
2) Cn1cc2cc(-c3ccc4nc(N5CC[C@@H](NC(C)(C)C)C5)ccc4n3)c(O)c(F)c2n1 (single isomer, unassigned) | A (A represents <100 nM)

----------
Below, each of the compounds is paired with its reported pIC50 value.
- Test system: Target C
- experimental_details: RT-qPCR canonical junction panel assay, Target C mRNA
- Format: cell-based
- recorded_conditions: Table 4, read-out: Target C IC50 (decrease in CJ mRNA levels)
pIC50: −log10 of the molar value.

Sample records with pIC50:
1. Cc1c(O)c(-c2ccc3cc(N4C[C@H](C)N[C@@H](C)C4)cc(F)c3n2)cc2cn(C)nc12 (single isomer, unassigned) [Compound 800, 2,2,2-trifluoroacetate] | 6.00 to 7.00
2. C[C@H]1CN(c2ccc3nc(-c4cc(F)c5nn(C)cc5c4)ncc3c2)C[C@H](C)N1 | 6.00 to 7.00

// returns reported pIC50 for input "CNC1CCN(c2ccc3nc(-c4cc5oc(C)nc5cc4O)ccc3n2)CC1"
< 5.00

// returns reported pIC50 for input Cc1nc2c(C)c(O)c(-c3ccc4nc(N5CC[C@@H](NCC6CC6)C5)ccc4n3)cc2o1 (single isomer, unassigned)
6.00 to 7.00

// returns reported pIC50 for input "C[C@@H]1CN(c2ccc3nc(-c4cc5cn(C)nc5cc4O)nc(C4CCC4)c3c2)C[C@H](C)N1"
< 5.00

// returns reported pIC50 for input "Cc1c(O)c(-c2ccc3cc(N4CCNC5(CC5)C4)cc(F)c3n2)cc2cn(C)nc12"
6.00 to 7.00

// returns reported pIC50 for input Cc1nc2cc(O)c(-c3ccc4nc([C@@H]5CCNC6(CC6)C5)ccc4n3)cc2o1 (single isomer, unassigned)
6.00 to 7.00

----------
- System: K562 cells
- experimental_details: Cell Titer Glo 2.0 cell viability (toxicity) assay, K562
- recorded_conditions: 500 cells/well, 72 hours
observation_type: Effect of Exemplary Compounds on Cell Viability, K562

1) Cc1cn2nc(-c3ccc4nc(C5CCNCC5)ccc4n3)c(O)c2c(C)n1 | A (A represents <100 nM)
2) CN[C@@H]1CCN(c2ccc3nc(-c4cc5cn(C)nc5c(C)c4O)ncc3n2)C1 (single isomer, unassigned) | A (A represents <100 nM)

----------
- System: HTT mRNA
- experimental_details: RT-qPCR splicing assay, HTT mRNA canonical (CJ) and alternative (AJ) junction
- Type: cell-based, human
- recorded_conditions: Homo sapiens, HTT canonical junction mRNA, RT-qPCR; read-out: HTT CJ (decrease in CJ mRNA levels, IC50)
Below, each of the compounds is paired with its reported IC50 value.

Sample records with IC50:
1) Cn1cc2cc(-c3ccc4nc(N5CC[C@@H](NC(C)(C)C)C5)ccc4n3)c(O)cc2n1 | < 100 nM
2) Cc1nc2cc(O)c(-c3ccc4nc(N5CCC(NC(C)(C)C)CC5)ccc4n3)cc2o1 | 100 to 1000 nM
3) CNC(=O)c1nc(-c2cc3cn(C)nc3cc2O)nc2ccc(N3C[C@@H](C)N[C@@H](C)C3)cc12 | 1000 to 10000 nM
4) Cn1cc2cc(-c3ccc4nc(N5CC[C@H](NC6COC6)C5)ccc4n3)c(O)cc2n1 | 1000 to 10000 nM
5) Cn1cc2cc(-c3ccc4cc(C5CCNCC5)ccc4n3)c(O)c(F)c2n1 | < 100 nM
6) Cn1cc2cc(-c3ccc4nc(N5CC[C@@H](NCC6CC6)C5)ccc4n3)c(O)c(F)c2n1 (single isomer, unassigned) | < 100 nM

// returns reported IC50 for input "Cn1cc2cc(-c3ccc4nc(N5CC[C@@H](NC6(CF)CC6)C5)ccc4n3)c(O)cc2n1"
< 100 nM

// returns reported IC50 for input "Cn1cc2c(O)c(-c3cc4ccc(C5CCNCC5)nc4cn3)ccc2n1"
1000 to 10000 nM
